test_summary: PSAC antagonists in infected red cells, primary screen, cell-based, P. falciparum Indochina, OD700, 1 h (AID 1154)
measurement_setup: P. falciparum Indochina infected RBC osmotic lysis, called active from +8 up or from −8 down
Activity calls are given as the source filed them.
Pick one and only one: active, inactive

structure_notation: CC(CCN1CCc2nc(-c3ccccc3)c(-c3ccccc3)cc2C1)=NO[C@H](C)c1cn([C@@H]2COC[C@H]2O)nn1
discrete_label: inactive
//
structure_notation: COC(=O)[C@H](C)NC(=O)[C@@H](C)CO
discrete_label: inactive
//
structure_notation: Cc1cc(C)c(-c2cc([C@H](C)ON=C3[C@H]4CCn5c(=O)n(-c6ccccc6)c(=O)n5[C@H]4[C@H](O)[C@@H]4O[C@H]34)on2)c(C)c1
discrete_label: inactive
//
structure_notation: Cc1cc2c(c(=O)o1)[C@H](O)[C@H]1O[C@H]1C2=O
discrete_label: inactive
//
structure_notation: CN1C(=O)[C@@]2(CCC(=O)OC(C)(C)C)N=C(c3ccc(OCCCO)cc3)O[C@H]2c2ccccc21
discrete_label: active
//
structure_notation: COC(=O)CC=C[C@@H](C)[C@@H](C=NO[C@H](C)c1cn([C@@H]2COC[C@H]2O)nn1)OC
discrete_label: inactive

Now turn to the next compound.
Can you look up the reported call for "CCCC[C@@H]1C[C@H]1[C@@H](NS(=O)(=O)c1cccc2cccnc12)c1ccc(-c2ccccc2)cc1" for me?
inactive

====

system: Albumin (Bos taurus) (UniProt P02769)
Sequence (P02769 whole entry, looked up): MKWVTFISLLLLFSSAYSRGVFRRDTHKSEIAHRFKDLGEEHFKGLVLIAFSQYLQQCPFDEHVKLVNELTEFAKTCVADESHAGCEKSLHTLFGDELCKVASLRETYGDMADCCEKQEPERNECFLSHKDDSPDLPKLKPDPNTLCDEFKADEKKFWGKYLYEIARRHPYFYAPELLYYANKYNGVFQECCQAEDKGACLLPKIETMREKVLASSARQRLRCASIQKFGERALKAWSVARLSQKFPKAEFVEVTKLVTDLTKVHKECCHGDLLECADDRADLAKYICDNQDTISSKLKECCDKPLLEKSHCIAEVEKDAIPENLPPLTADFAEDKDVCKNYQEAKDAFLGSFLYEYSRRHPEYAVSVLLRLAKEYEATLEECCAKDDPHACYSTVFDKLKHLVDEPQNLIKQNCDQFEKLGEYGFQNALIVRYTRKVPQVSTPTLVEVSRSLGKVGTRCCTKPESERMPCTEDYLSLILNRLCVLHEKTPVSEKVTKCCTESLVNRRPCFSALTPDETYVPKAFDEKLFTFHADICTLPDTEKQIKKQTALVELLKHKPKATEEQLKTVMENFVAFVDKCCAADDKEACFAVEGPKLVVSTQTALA
test_summary: bovine serum albumin binders on microarray, profiling panel, artefact control for SMM control protein annotation, biochemical, small-molecule microarray, Alexa647 label, 635/667 nm fluorescence (AID 1118);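 note: score merges 667 nm emission intensity and signal-to-noise per printed compound spot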
measurement_setup: BSA-A647 binding, fluorescence 635 nm, higher = more signal
Consider the following compounds and their measured composite z-score readings.
Please respond with just the number, no unit label.

compound: COc1cccc([C@H]2Oc3ccc(OC)cc3C(=NOC(C)CN3CCCc4nc(C)c(C)cc43)[C@@H]2O)c1 (stereo partly specified)
system: Albumin (Bos taurus) (UniProt P02769)
composite z-score: -0.605
//
compound: COC(=O)[C@@]1(Cc2ccc(OC)cc2)[C@H]2c3cc(C(=O)N4CCCC4)n(Cc4cc(F)c(F)c(F)c4)c3C[C@H]2CN1C(=O)c1ccccc1
system: Albumin (Bos taurus) (UniProt P02769)
composite z-score: 1.04
//
compound: CO[C@@H]1COC(=O)CC=C[C@@H](C)[C@H](OC)COC(=O)[C@H](COCc2ccccc2)NC(=O)CC=C[C@H]1C
system: Albumin (Bos taurus) (UniProt P02769)
composite z-score: -1.39
//
compound: COCCOC(=O)N1C(=O)[C@@]2(c3cc(C#CC4(O)CCCCCC4)ccc31)[C@H](C(=O)N1CCN(c3ncccn3)CC1)[C@H]1C(=O)O[C@H](c3ccccc3)[C@H](c3ccccc3)N1[C@@H]2c1ccc(OCCO)cc1
system: Albumin (Bos taurus) (UniProt P02769)
composite z-score: 0.408
//
compound: O=C1C2=CC[C@H]3C(=O)N(Cc4ccc5c(c4)OCO5)C(=O)[C@H]3[C@H]2[C@H](O)[C@@H]2O[C@H]12
system: Albumin (Bos taurus) (UniProt P02769)
composite z-score: -0.176

# evaluate next
Given the entry "CCOC(=O)C[C@H]1[C@H](OC(=O)c2cc3ccccc3oc2=O)[C@@H](NC(=O)c2ccc3ccccc3n2)c2cc(OCCCO)ccc2N1C(=O)c1ccccc1" , report its measured composite z-score.
0.328
